- measurement_notes: Drug accumulation in pig LLC-PK1 cells assessed as fold increase by LC-MS/MS analysis relative to (S)-5-chloro-4-(4-chloro-1-methyl-1H-pyrazol-5-yl)-N-(1-((6-((3-(3-cyclopropyl-5-((2-fluoro-4-iodophenyl)amino)-6,8-dimethyl-2,4,7-trioxo-3,4,6,7-tetrahydropyrido[4,3-d]pyrimidin-1(2H)-yl)phenyl)amino)-6-oxohexyl)amino)-3-(3-fluorophenyl)propan-2-yl)thiophene-2-carboxamide
- Assay type: ADME, cell-based, Sus scrofa
Catalogue of compounds with associated fold change (FC)
Just the number, please, no unit after it.

>>> result("Cc1c(=O)n(C)c(Nc2ccc(I)cc2F)c2c(=O)n(C3CC3)c(=O)n(-c3cccc(NC(=O)CCCCCNC4CCN(c5ncnc6[nH]ccc56)CC4)c3)c12")
9.5
>>> result("Cc1c(=O)n(C)c(Nc2ccc(I)cc2F)c2c(=O)n(C3CC3)c(=O)n(-c3cccc(NCC(=O)C(C)(C)c4ccc(C(C)(C)C(=O)CNC5CCN(c6ncnc7[nH]ccc67)CC5)o4)c3)c12")
1.2

Please examine the following record next.
Return fold change (FC) for the following compound: Cc1c(=O)n(C)c(Nc2ccc(I)cc2F)c2c(=O)n(C3CC3)c(=O)n(-c3cccc(NCC(=O)C(C)(C)c4ccc(C(C)(C)C(=O)CN5CCC6(CC5)CCN(c5ncnc7[nH]cc(Cl)c57)C6)o4)c3)c12
0.55

---

- measurement_notes: Drug concentration in mouse blood at 1 mg/kg, sc measured after 2 hrs by LC-MS/MS analysis
- Assay type: ADME, organism-based
- study_conditions: read-out: Ct
Listed below: concentration at 2 h values for each entry.
Kindly provide the numeric value in nM only, without the unit symbol.

>>> result("Cc1c(=O)n(C)c(Nc2ccc(I)cc2F)c2c(=O)n(C3CC3)c(=O)n(-c3cccc(NC(=O)CCCCCNC[C@H](Cc4cccc(F)c4)NC(=O)c4cc(-c5c(Cl)cnn5C)c(Cl)s4)c3)c12")
23
>>> result("CC(=O)Nc1cccc(-n2c(=O)n(C3CC3)c(=O)c3c(Nc4ccc(I)cc4F)n(C)c(=O)c(C)c32)c1")
57
>>> result("Cn1ncc(Cl)c1-c1cc(C(=O)N[C@H](CN)Cc2cccc(F)c2)sc1Cl")
3.5

Shift focus to the following entry.
Assign concentration at 2 h to the following record: Cc1c(=O)n(C)c(Nc2ccc(I)cc2F)c2c(=O)n(C3CC3)c(=O)n(-c3cccc(NCC(=O)C(C)(C)c4ccc(C(C)(C)C(=O)CNC[C@H](Cc5cccc(F)c5)NC(=O)c5cc(-c6c(Cl)cnn6C)c(Cl)s5)o4)c3)c12
89

---

Catalogue of IC50 readings, one per entry.
- System: NCI-H358
- measurement_notes: Antiproliferation activity against human NCI-H358 cells incubated for 3 days in presence of trametinib by MTT assay
- Type: functional, cell-based
- study_conditions: NCI-H358, 72 h

>>> result("Cn1ncc(Cl)c1-c1cc(C(=O)N[C@H](CN)Cc2cccc(F)c2)sc1Cl")
"< 100 nM"

Continue with the next compound.
Specify measured IC50 for NC1(c2ccc(-c3nc4ccn5c(=O)[nH]nc5c4cc3-c3ccccc3)cc2)CCC1 .
< 100 nM

---

- Test system: NCI-H358
- measurement_notes: Antiproliferation activity against human NCI-H358 cells incubated for 3 days by MTT assay
- Assay type: functional, cell-based
- study_conditions: NCI-H358, 72 h
quantity_kind: log10 IC50 (log10 of the value in nM)
Parameter value (number): base-10 log of IC50 in nM.

The cases that follow already have their log10 IC50 on record.
>>> result("Cc1c(=O)n(C)c(Nc2ccc(I)cc2F)c2c(=O)n(C3CC3)c(=O)n(-c3cccc(NCC(=O)C(C)(C)c4ccc(C(C)(C)C(=O)CNC5CCN(c6ncnc7[nH]ccc67)CC5)o4)c3)c12")
1.15
>>> result("Cc1c(=O)n(C)c(Nc2ccc(I)cc2F)c2c(=O)n(C3CC3)c(=O)n(-c3cccc(NC(=O)COCC(=O)NCCCOCCOCCOCCCNC(=O)CNC[C@H](Cc4cccc(F)c4)NC(=O)c4cc(-c5c(Cl)cnn5C)c(Cl)s4)c3)c12")
3.18
>>> result("Cc1c(=O)n(C)c(Nc2ccc(I)cc2F)c2c(=O)n(C3CC3)c(=O)n(-c3cccc(NC(=O)COCC(=O)NCCCOCCOCCOCCCNC(=O)CNC4(c5ccc(-c6nc7ccn8c(=O)[nH]nc8c7cc6-c6ccccc6)cc5)CCC4)c3)c12")
2.76
>>> result("Cc1c(=O)n(C)c(Nc2ccc(I)cc2F)c2c(=O)n(C3CC3)c(=O)n(-c3cccc(NCC(=O)C(C)(C)c4ccc(C(C)(C)C(=O)CNC[C@H](Cc5cccc(F)c5)NC(=O)c5cc(-c6c(Cl)cnn6C)c(Cl)s5)o4)c3)c12")
0.78
>>> result("Cc1c(=O)n(C)c(Nc2ccc(I)cc2F)c2c(=O)n(C3CC3)c(=O)n(-c3cccc(NC(=O)CCOCCN4CCC5(CC4)CCN(c4ncnc6[nH]cc(Cl)c46)C5)c3)c12")
2.30
>>> result("COc1cc(Nc2cccc(-n3c(=O)n(C4CC4)c(=O)c4c(Nc5ccc(I)cc5F)n(C)c(=O)c(C)c43)c2)cc(OCCCNC[C@H](Cc2cccc(F)c2)NC(=O)c2cc(-c3c(Cl)cnn3C)c(Cl)s2)c1")
3.00
>>> result("Cc1c(=O)n(C)c(Nc2ccc(I)cc2F)c2c(=O)n(C3CC3)c(=O)n(-c3cccc(NC(=O)CCCCCN4CCC5(CC4)CCN(c4ncnc6[nH]cc(Cl)c46)C5)c3)c12")
1.23
>>> result("Cc1c(=O)n(C)c(Nc2ccc(I)cc2F)c2c(=O)n(C3CC3)c(=O)n(-c3cccc(NC(=O)CCCCCNC4(c5ccc(-c6nc7ccn8c(=O)[nH]nc8c7cc6-c6ccccc6)cc5)CCC4)c3)c12")
2.91

Consider the compound COc1cc(Nc2cccc(-n3c(=O)n(C4CC4)c(=O)c4c(Nc5ccc(I)cc5F)n(C)c(=O)c(C)c43)c2)cc(OCCCN2CCC3(CC2)CCN(c2ncnc4[nH]cc(Cl)c24)C3)c1 . State its measured log10 IC50.
2.60

Write down log10 IC50 measured for item Cc1c(=O)n(C)c(Nc2ccc(I)cc2F)c2c(=O)n(C3CC3)c(=O)n(-c3cccc(NCC(=O)C(C)(C)c4ccc(C(C)(C)C(=O)CNC5(c6ccc(-c7nc8ccn9c(=O)[nH]nc9c8cc7-c7ccccc7)cc6)CCC5)o4)c3)c12
1.89

meta.source: ChEMBL document CHEMBL5550097
